- experimental details: binders from COS7 lysate, DM2A8 probe, primary screen, torsin A project, cell lysate, small-molecule microarray, fluorescence 635/667 (AID 1065)
- condition context: higher = more signal, COS7 lysate expressing mutant human TOR1A
Reported composite z-score values for a set of compounds

- compound: "C=CC1c2cc(O)c(OC)cc2CCN1Cc1cccc(OC(F)(F)F)c1 (centres undefined)"
  composite z-score: -0.145
- compound: "COc1ccc([Si](C)(C)[C@@H]2[C@@H](CC(=O)N3CCC[C@H]3CO)O[C@]3(C(=O)N(Cc4cccc(I)c4)c4ccccc43)[C@H]2C)cc1"
  composite z-score: 1.29
- compound: "COC(=O)c1c2oc(c1C(=O)OC)C(=O)N[C@@H](C(C)C)Cn1cc(nn1)C1(CCCCC1)NC(=O)N[C@H](CO)CC2"
  composite z-score: 0.104
- compound: "COc1ccc(NN2C(C(O)c3ccc(N(C)C)cc3)C=CC3C(=O)N(C4CCCCC4)C(=O)C32)cc1 (centres undefined)"
  composite z-score: 0.427

* * *

- experimental details: probe aLAP1 signal on lysate-treated microarray – cell lysate, small-molecule microarray, COS7 lysate, primary screen (AID 1124);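 also: lysate comes from COS7 cells expressing LAP1 and is applied at 0.3 µg/mL; score merges spot fluorescence near 667 nm with signal-to-noise over triplicate slides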
- condition context: probe aLAP1, fluorescence, higher = more signal
Reported composite z-score values for a set of molecules

- molecule: "COCCOC(=O)N1C(=O)[C@@]2(c3cc(C#CC4=CCCCC4)ccc31)[C@H](C(N)=O)[C@H]1C(=O)O[C@H](c3ccccc3)[C@H](c3ccccc3)N1[C@@H]2c1ccc(O)cc1"
  composite z-score: 0.322
- molecule: "C=CCNC(=O)[C@H]1[C@@H]2C(=O)O[C@@H](c3ccccc3)[C@@H](c3ccccc3)N2[C@@H](c2ccc(OCCO)cc2)[C@]12C(=O)Nc1ccc(C#CCC(C(=O)OC)C(=O)OC)cc12"
  composite z-score: 0.979
- molecule: "CN(C)CCCCCCNC(=O)[C@@H]1C[C@@H]2C(=O)N3CCC[C@H]3C(=O)N2[C@@H]1c1ccc(O)cc1"
  composite z-score: 1.47
- molecule: "CCCCCN1CC=CC23O[C@@H]4C=CCOC(=O)[C@@H]4[C@H]2C(=O)N(C(C)CO)[C@@H]3C1=O (some centres not stated)"
  composite z-score: -0.0739
- molecule: "NC(=O)[C@@]1(Cc2ccccc2)N=C(c2ccc(OCCCO)cc2)O[C@H]1c1ccccc1"
  composite z-score: 0.593
- molecule: "C=CC1c2cc(O)c(OC)cc2CCN1Cc1cccc(OC(F)(F)F)c1 (configuration not stated)"
  composite z-score: 0.754
- molecule: "CCOC(=O)C1=C[C@@H](C(C)C)N(S(=O)(=O)c2ccc(C)cc2)[C@H]1c1ccccc1F"
  composite z-score: -0.144

* * *

- Tested on: Lefty1
- experimental details: Lefty1 protein binding to printed compounds – biochemical, small-molecule microarray, 635/667 nm fluorescence, primary screen (AID 1139)
- condition context: fluorescence 635/667, higher = more signal
Label TRUE when composite z-score is at or above 0.6; otherwise label FALSE.

- compound: "O[C@@H](Cc1ccccc1)[C@@H](/C=C/C1CC1)NCc1cccc(Cl)c1"
  tested system: "Lefty1"
  group: "FALSE"
- compound: "C=C(CCCC)/C(=C/C[C@@H](OC(C)=O)c1cccc(OCCO)c1)c1cnc2ccccc2c1"
  tested system: "Lefty1"
  group: "TRUE"
- compound: "CC(C)CCC[C@@H](C)[C@H]1CC[C@@]2(C)C3=C(CC[C@]12C)[C@@]1(C)CC[C@H](OC(=O)c2ccc(C(F)(F)F)nc2)C(C)(C)C1CC3 (some centres not stated)"
  tested system: "Lefty1"
  group: "TRUE"
- compound: "COC(=O)c1c(CC[C@@H](CO)NC(=O)N[C@@H](Cc2ccccc2)Cn2cc(-c3ccccn3)nn2)oc(C(=O)N2CCOCC2)c1C(=O)OC"
  tested system: "Lefty1"
  group: "TRUE"
- compound: "C=CCNC(=O)[C@H]1[C@@H]2C(=O)O[C@@H](c3ccccc3)[C@@H](c3ccccc3)N2[C@@H](c2ccc(OCCO)cc2)[C@]12C(=O)Nc1ccc(C#CCC(C(=O)OC)C(=O)OC)cc12"
  tested system: "Lefty1"
  group: "FALSE"
- compound: "COCCCNC(=O)[C@@]1(Sc2ccc(C)cc2)CC(=O)N(Cc2ccccc2Cl)[C@@H]1c1ccc(CO)cc1"
  tested system: "Lefty1"
  group: "TRUE"
- compound: "O=C1O[C@@H](c2ccccc2)[C@@H](c2ccccc2)N2[C@@H](c3ccc(OCCO)cc3)[C@]3(C(=O)Nc4ccc(C#CCCO)cc43)[C@@H](C(=O)NC[C@H](O)c3ccccc3)[C@H]12"
  tested system: "Lefty1"
  group: "TRUE"
- compound: "C=C(/C(=C/C[C@H](OC(=O)c1ccncc1)c1ccc(OCCO)cc1)c1cc(C(=O)OC)ccc1OC)C(C)C"
  tested system: "Lefty1"
  group: "FALSE"
- compound: "C=CCC(OC(C)=O)[C@@H]1[C@@H](N(Cc2ccc(-c3cccc(C(F)(F)F)c3)o2)C(=O)c2cccc3ccccc23)c2cc(OCCCO)ccc2N1C(=O)Cc1ccc2ccccc2c1 (some centres not stated)"
  tested system: "Lefty1"
  group: "FALSE"
- compound: "CO[C@H]1O[C@H](CO)[C@@H](OC(=O)Nc2ccc(Br)cc2)[C@@H]2OC(=O)[C@H](Cc3cccc(Br)c3)C/C=C/C[C@@H](Cc3cccc(Br)c3)C(=O)O[C@@H]12"
  tested system: "Lefty1"
  group: "TRUE"
- compound: "CC(C)CN1C(=O)[C@@]2(c3ccc([N+](=O)[O-])cc3)CC(=O)N(C3CCCCC3)[C@@H]2c2ccc(CO)cc21"
  tested system: "Lefty1"
  group: "FALSE"
- compound: "C[N+](C)(C)CCCC[C@@H]1NC(=O)[C@H]2C[C@@H](C(=O)NCCCCCCNC(=O)CS)[C@@H](c3ccc(O)cc3)N2C1=O"
  tested system: "Lefty1"
  group: "FALSE"
- compound: "[N-]=[N+]=Nc1ccccc1C[C@]1(C(=O)NCc2ccccc2)N=C(c2ccc(OCCCO)cc2)O[C@H]1c1ccccc1N=[N+]=[N-]"
  tested system: "Lefty1"
  group: "FALSE"
- compound: "COC(=O)[C@@]1(Cc2ccc(OC)cc2)[C@H]2c3cc(C(=O)N4CCCC4)n(CCSCCO)c3C[C@H]2CN1C(=O)c1ccccc1"
  tested system: "Lefty1"
  group: "FALSE"
- compound: "COCCOC(=O)N1C(=O)[C@@]2(c3ccccc31)[C@H](C(=O)N1CCCCCCC1)[C@H]1C(=O)O[C@H](c3ccccc3)[C@H](c3ccccc3)N1[C@@H]2c1ccc(OCCO)cc1"
  tested system: "Lefty1"
  group: "TRUE"
- compound: "C=C(CCCC)C(=O)CC[C@H](OC(=O)c1cccnc1)c1ccc(OCCO)cc1"
  tested system: "Lefty1"
  group: "FALSE"
- compound: "CC(C)(C)OC(=O)CC[C@@]1(C(=O)N2CCCCC2)N=C(c2ccc(OCCCO)cc2)O[C@@H]1c1ccccc1"
  tested system: "Lefty1"
  group: "FALSE"
- compound: "CCCCCCc1nc(-c2ccc(-c3ccc(Cl)c(Cl)c3)o2)c(C)c2c1[Si](C(C)C)(C(C)C)OC2"
  tested system: "Lefty1"
  group: "FALSE"
- compound: "COc1ccccc1CN1C(=O)c2ccccc2[C@@H](C(=O)NCc2ccccc2)[C@@H]1c1ccc(CO)cc1"
  tested system: "Lefty1"
  group: "FALSE"
- compound: "COCCOC(=O)N1C(=O)[C@@]2(c3cc(C#CCCO)ccc31)[C@H](c1ccc(OCCO)cc1)N1[C@H](c3ccccc3)[C@H](c3ccccc3)OC(=O)[C@H]1[C@@H]2C(N)=O"
  tested system: "Lefty1"
  group: "FALSE"
- compound: "C=CCOC(=O)[C@H]1[C@@H]2C(=O)O[C@@H](c3ccccc3)[C@@H](c3ccccc3)N2[C@@H](c2ccc(OCCOC(=O)[C@H]3C[C@H]4C(=O)N[C@@H](CCCCN(C)C)C(=O)N4[C@H]3c3cccc(OCCO)c3)cc2)[C@]12C(=O)Nc1ccc(I)cc12"
  tested system: "Lefty1"
  group: "TRUE"
- compound: "COC(=O)[C@@]1(Cc2ccccc2)[C@H]2c3cc(C(=O)N4CCCC4)n(Cc4c(CO)[nH]cc(C)c4=O)c3C[C@H]2CN1C(=O)c1ccccc1"
  tested system: "Lefty1"
  group: "FALSE"
- compound: "C=CC[C@]12N=C(c3ccc(OCCCO)cc3)O[C@H]1c1ccccc1N(CCS(=O)(=O)c1ccccc1)C2=O"
  tested system: "Lefty1"
  group: "TRUE"
- compound: "CC(C)[C@@H](C(=O)O)n1cc(C2(O)CCCCC2)nn1"
  tested system: "Lefty1"
  group: "FALSE"
- compound: "CC(C)NC(=O)[C@@H]1c2ccccc2C(=O)N(C(C)C)[C@H]1c1ccc(CO)cc1"
  tested system: "Lefty1"
  group: "FALSE"
- compound: "COc1ccc(C(O)C2C=CC3C(=O)N(C)C(=O)C3N2NC(=O)OC(C)(C)C)c2ccccc12 (configuration not stated)"
  tested system: "Lefty1"
  group: "FALSE"

Recorded values, source PubChem BioAssay.
